# Experimental details: refractive index (Na D-line) (dimensionless)
# Particulars: 298.15 K; 101.33 kPa; Liquid; Standard Abbe refractometry
Below is a list of entries, each paired with its recorded refractive index value.
# output: bare number, no unit

Consider the reported refractive index for these compounds:
**Query** Would you kindly share the measured refractive index for CCCCCl [1-chlorobutane] ?
**Result** 1.3995

**Query** Would you kindly share the measured refractive index for CCCCl [1-chloropropane] ?
**Result** 1.3856

**Query** Would you kindly share the measured refractive index for CC(C)CCl [1-chloro-2-methylpropane] ?
**Result** 1.39528

***
**Query** Would you kindly share the measured refractive index for CCC(C)Cl (stereo unspecified) [2-chlorobutane] ?
**Result** 1.39404

**Query** Would you kindly share the measured refractive index for CC(C)(C)Cl [2-chloro-2-methylpropane] ?
**Result** 1.38224

**Query** Would you kindly share the measured refractive index for C1COCCO1 [1,4-dioxane] ?
**Result** 1.41995
